# tgt: PDE1A (Homo sapiens, UniProt P54750)
# Sequence (P54750 whole entry): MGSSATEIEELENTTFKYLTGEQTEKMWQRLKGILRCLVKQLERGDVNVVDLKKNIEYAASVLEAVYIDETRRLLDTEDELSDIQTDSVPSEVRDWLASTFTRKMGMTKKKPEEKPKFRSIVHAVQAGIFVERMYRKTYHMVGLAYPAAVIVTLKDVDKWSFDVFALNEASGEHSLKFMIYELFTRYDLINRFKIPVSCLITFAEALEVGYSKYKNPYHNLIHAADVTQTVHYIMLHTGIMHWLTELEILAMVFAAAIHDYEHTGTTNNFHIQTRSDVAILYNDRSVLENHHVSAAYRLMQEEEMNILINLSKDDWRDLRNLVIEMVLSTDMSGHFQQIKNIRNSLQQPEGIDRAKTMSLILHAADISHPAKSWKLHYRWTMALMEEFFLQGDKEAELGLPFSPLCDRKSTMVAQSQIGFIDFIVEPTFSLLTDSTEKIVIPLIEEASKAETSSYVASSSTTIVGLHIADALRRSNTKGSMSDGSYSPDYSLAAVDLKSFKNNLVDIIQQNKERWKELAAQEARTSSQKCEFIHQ
measure.name: log10(IC50) (log10 of the value in nM)
Heads up, the numbers here are log10 of IC50 in nM units.

Example compounds with recorded log10(IC50):
>>> numeric_result("COc1ccc2c(N3CC[C@@H]4OCCC43)ncnc2c1F (single isomer, unassigned) [8 Stereoisomer 2]")
3.61
>>> numeric_result("COc1ccc2c(NC3CCOC3)ncnc2c1Cl (single isomer, unassigned) [4 Stereoisomer 2]")
2.28
>>> numeric_result("COc1ccc2c(NC3CCOC3)ncnc2c1F (single isomer, unassigned) [16 Stereoisomer 1]")
3.07
>>> numeric_result("COc1ccc2c(NC3(C)CCOC3)ncnc2c1Cl (single isomer, unassigned) [7 stereoisomer 1]")
2.30
>>> numeric_result("COc1ccc2c(NC3(C)CCOC3)ncnc2c1F (single isomer, unassigned) [1 Stereoisomer 1]")
1.70

Form field: reported log10(IC50) of COc1ccc2c(N(C)C3(C)CCOC3C)ncnc2c1F (single isomer, unassigned) [19 Stereoisomer 1]
2.36

Record request: log10(IC50) value, item COc1ccc2c(N(C)C3CCOC3)ncnc2c1F (single isomer, unassigned) [2 Stereoisomer 1]
3.04

Where do the numbers come from? From patent US10526319B2.
